test: DAX1 (NR0B1) inhibitors on StAR promoter, primary screen, cell-based, luminescence, SF-1 (NR5A1), full-length DAX-1 (AID 652010); conditions: HEK293T StAR-luciferase reporter, SF-1/DAX-1 repression relief; at 6.8 µM;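 note: higher inhibition means more luminescence from relief of DAX-1 repression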
The whole screen tested about 370,000 compounds, of which about 4,100 (1.1%) were called active.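 Rule for the calls: active = inhibition above the mean over all tested compounds plus 3 SD (cut at about 3.6% in these data); inactive = the rest.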 Only a selection was taken, and actives are over-represented in it overall.
Would you mind answering with one of these outcomes? active, inactive

Query :: Could you kindly confirm the outcome this assay logged for COc1ccc(C2CC=C(C(=O)O)C(c3ccccc3F)N2S(=O)(=O)c2ccc(C)cc2)cc1OC (stereo not given) ?
Result :: inactive

Query :: What about this molecule? CCCOc1ccc(Oc2c(Cl)cnn(Cc3cccc4ccccc34)c2=O)cc1
Result :: inactive

Query :: What about this molecule? COc1ccc([C@H]2OC(=O)C[C@H]2C(=O)N2CCN(c3ccccc3F)CC2)cc1OC
Result :: inactive

Query :: What about this molecule? CCc1nonc1NC(=O)c1oc2ccc(Cl)cc2c1C
Result :: inactive

Query :: What about this molecule? CCCCCCN1CCS(=O)(=O)N(Cc2ccc(C(F)(F)F)cc2)C(C(=O)OC)C1 (stereo not given)
Result :: inactive

Query :: What about this molecule? Cc1cc(C)nc(Nc2n[nH]c(-c3ccccc3N)n2)n1
Result :: active

Query :: What about this molecule? Cc1ccc(OCC(=O)Oc2ccccc2[N+](=O)[O-])cc1
Result :: inactive

Query :: What about this molecule? Cc1cc(C)cc(NC(=O)NC2CCCCCCC2)c1
Result :: inactive

Query :: What about this molecule? O=C(OC12CCCN(C1)/C(=C/c1cccnc1)C2)C1CCCC1 (stereo not given)
Result :: inactive

Query :: What about this molecule? CCOC(=O)N1CCN(C(=O)C[C@H]2C[C@@]3(C(=O)OC)C(=C[C@H](C(C)(C)C)O[C@@H]3C)N(Cc3ccc(Cl)cc3Cl)C2=O)CC1
Result :: inactive

Query :: What about this molecule? Cc1nn(-c2ccccc2)c2c1C(c1cccc([N+](=O)[O-])c1)N(c1ccccc1)C(=O)N2 (stereo not given)
Result :: inactive

Query :: What about this molecule? CC(C)c1cc(C(=O)N/N=C/c2ccoc2)c(O)c(C(C)C)c1
Result :: inactive

Query :: What about this molecule? O=C(CCc1ccccc1)Nc1ncc([N+](=O)[O-])s1
Result :: active

Query :: What about this molecule? Cc1nn(-c2ccc([N+](=O)[O-])cc2)c(N)c1-c1ccccc1
Result :: active

Query :: What about this molecule? O=C(Nc1ncccc1O)c1ccc(C(=O)c2ccccc2)cc1
Result :: active

Query :: What about this molecule? CC(C)(C)n1nc2c(c1NC(=O)c1ccc(S(=O)(=O)N3CCCC3)cc1)CS(=O)C2 (stereo not given)
Result :: inactive

Query :: What about this molecule? COc1ccc(Cn2cc(COC(=O)N(C)Cc3ccccc3)nn2)cc1
Result :: inactive

Query :: What about this molecule? COc1ccc(Cn2ccc3ccc(-c4ccc5ccn(Cc6ccccc6C)c5c4)cc32)cc1
Result :: inactive

Query :: What about this molecule? Cc1cccc(C(=O)N2CCN(S(=O)(=O)N3CCCCC3)CC2)c1
Result :: inactive

Query :: What about this molecule? CC(C)(C)c1cnnn1-c1ccc([N+](=O)[O-])cc1
Result :: inactive

Query :: What about this molecule? CN1CCN(NC(=O)c2ccc(S(=O)(=O)N3CCCCCC3)cc2)CC1
Result :: inactive

Query :: What about this molecule? O=C(O)c1cccc(N=NN2CCCCCC2)c1
Result :: active

Query :: What about this molecule? O=C(NC1CCc2ccccc21)C12CN(Cc3ccccc3)CC1C(c1cccc([N+](=O)[O-])c1)=NO2 (stereo not given)
Result :: inactive

Query :: What about this molecule? O=C(Cn1cnc([N+](=O)[O-])n1)NCCc1ccccc1
Result :: inactive

Query :: What about this molecule? Cc1c(C(=O)Nc2ccccn2)oc2ccc(Br)cc12
Result :: active
